- Organism: Mus musculus
- Test description: Maximum reduction in plasma triglyceride levels in KKA mice at a dosage of 0.005% in diet
- Format: functional
This section presents compounds with their documented Reduction values.
Reported property: Reduction (%)

Compound: Cc1nc(COc2ccc(CC3SC(=O)NC3=O)cc2)co1 (stereo unspecified)
Reported property: Reduction
Result number: 1

Compound: O=C1NC(=O)C(Cc2ccc(OCc3nc(-c4ccccc4)cs3)cc2)S1 (stereo unspecified)
Reported property: Reduction
Result number: 44

Compound: Cc1nc(CCOc2ccc(CC3SC(=O)NC3=O)cc2)c(C)o1 (stereo unspecified)
Reported property: Reduction
Result number: 56

Compound: Cc1oc(-c2cccs2)nc1CCOc1ccc(/C=C2\SC(=O)NC2=O)cc1
Reported property: Reduction
Result number: 57

Compound: O=C1NC(=O)C(Cc2ccc(OCCc3nc(-c4ccccc4)oc3CO)cc2)S1 (stereo unspecified)
Reported property: Reduction
Result number: 39

Compound: Cc1oc(-c2ccccc2)nc1COc1ccc(CC2SC(=O)NC2=O)cc1 (stereo unspecified)
Reported property: Reduction
Result number: 44

Compound: Cc1oc(-c2ccco2)nc1COc1ccc(CC2SC(=O)NC2=O)cc1 (stereo unspecified)
Reported property: Reduction
Result number: 35

Compound: Cc1nc(CCOc2ccc(CC3SC(=O)NC3=O)cc2)oc1-c1ccccc1 (stereo unspecified)
Reported property: Reduction
Result number: 7

Compound: CC(C)c1nc(CCOc2ccc(CC3SC(=O)NC3=O)cc2)cs1 (stereo unspecified)
Reported property: Reduction
Result number: 45

Compound: O=C1NC(=O)C(Cc2ccc(OCc3nc4ccccc4o3)cc2)S1 (stereo unspecified)
Reported property: Reduction
Result number: 24

Compound: Cc1oc(-c2ccccc2)nc1C(O)COc1ccc(CC2SC(=O)NC2=O)cc1 (stereo unspecified)
Reported property: Reduction
Result number: 81
